Origin of measurements: PubChem BioAssay (NCI)

Collected TGI values appear next to each entry.
# System: TK-10 renal
# Test description: NCI tumour cell line growth inhibition, 48 h

Observe how each entry below is paired with its result.
ClC(Cl)=C(Cl)C1(Cl)CC1COCc1ccccc1 (stereo not given) :: > 100 µM
COC(=O)c1c2c(c(C)[n+]([O-])c1C)C(=O)C=C(NCc1ccccc1)C2=O :: 7.19 µM
COc1ccc(-c2c(C)c(C(=O)O)nc(-c3ccc4c(O)c(OC)c5c(c4n3)=NC(C)(C)N=5)c2N)c(O)c1OC :: 72.7 µM
CCO/C=C1\N=C(c2ccc(Cl)c(Cl)c2)OC1=O :: > 100 µM
Cc1ccc(S(=O)(=O)N2C[C@@H]3CC[C@]4(CO[Si](C)(C)C(C)(C)C)N[C@@H](c5ccccc5)[C@H]2[C@H]34)cc1 :: > 100 µM
Cc1nc2cc(F)c(F)cc2[nH]c1=O :: > 100 µM

The recorded TGI for O=c1cccccc1[O-].O=c1cccccc1[O-].O=c1cccccc1[O-].[Eu+3] is > 100 µM

The reported value for O=c1cc(-c2ccccn2)[nH]c2cccc(F)c12 in terms of TGI is > 100 µM

Documented TGI of C[C@@H]1[C@@H](C)C(c2ccccc2)O[Si]1(C(C)(C)C)C(C)(C)C (stereo not given in full) : 29.9 µM

Noted for NS(=O)(=O)c1nc(S(=O)(=O)O)c2[nH]cnc2n1 : its TGI reads > 100 µM

###

# System: TK-10 renal
# Test description: NCI tumour cell line growth inhibition, 48 h
Measurement kind: TGI

# annotated cases, reported TGI shown
N#CC1(C#N)C(C#N)(C#N)C1(C#N)C(N)=O :: > 100 µM
CCCC[C@@H](C)/C=C1\CN2CCC[C@H]2[C@@](C)(OCc2ccccc2)[C@@H]1O :: > 50 µM
O=S(=O)(NC1CCCCC1)c1ccc2c(c1)OCCOCCOCCOCCO2 :: > 100 µM
Clc1sc(Cl)c2c1[C@@H](Cl)C[C@@H]2Cl :: > 100 µM
COc1cc(/C=C/c2ccc(C)cc2)cc(OC)c1OC :: 18 µM

Please find the next molecule below.
For Cc1cc2[nH]c3c(C#N)c(-c4ccccc4)c(N=Nc4ccc(F)cc4)c(=O)n3c2cc1C the molecule record lists TGI as > 100 µM

###

# Tested on: HCT-116 colon
# Test description: NCI tumour cell line growth inhibition, 48 h; in the data active means GI50 below about 0.43 µM; inactive means the rest
Outcomes you can answer with include only these: T = active, F = inactive

Worked cases, answers included:
Nc1ccn(C2CC(F)C(CO)O2)c(=O)n1 (stereo not given) :: F
Cc1ccc2nc3ccccc3c(NCc3ccc(Cl)cc3)c2c1 :: F
N#Cc1nc(-c2ccc(F)cc2)oc1S(=O)(=O)N1CCCCC1 :: F
Cc1ccc(S(=O)(=O)Oc2ccc3c4c(c(=O)oc3c2)CCCCCC4)cc1 :: F
COc1cc(-c2nc3ccccc3s2)ccc1OCCCCOc1cc2c(cc1OC)C(=O)N1CCC[C@H]1C=N2 :: F
O=C(Oc1cccc(Cl)c1)c1ccccc1Nc1ccnc(C(F)(F)F)c1 :: F

// query # outcome recorded in this test, key = C=C(C)[C@@H]1CCC=C2CC[C@]3(C)[C@H](CC[C@@H]4[C@@]5(C)CCCNC(C)(C)[C@@H]5CC[C@]43C)[C@H]21
// result F

// query Entry CCC(=O)N1C/C(=C/c2ccc(Cl)cc2)C(=O)/C(=C/c2ccc(Cl)cc2)C1 : call = ?
// result T

// query Name the outcome recorded for NC(=N\N=C/c1ccc(O)cc1)/C(N)=N\N=C/c1ccc(O)cc1 in the assay.
// result F

// query For this compound, state the assay outcome: CCOc1ccc2c(-c3ccnc(Nc4cc(OC)cc(C(F)(F)F)c4)n3)cnn2n1
// result F
